Each recorded value in this set is attributed to paper PMC5666424.

- system under test: CDK5/p25 (Homo sapiens)
- Construct: made in house
- Sequence (Q00535 whole entry): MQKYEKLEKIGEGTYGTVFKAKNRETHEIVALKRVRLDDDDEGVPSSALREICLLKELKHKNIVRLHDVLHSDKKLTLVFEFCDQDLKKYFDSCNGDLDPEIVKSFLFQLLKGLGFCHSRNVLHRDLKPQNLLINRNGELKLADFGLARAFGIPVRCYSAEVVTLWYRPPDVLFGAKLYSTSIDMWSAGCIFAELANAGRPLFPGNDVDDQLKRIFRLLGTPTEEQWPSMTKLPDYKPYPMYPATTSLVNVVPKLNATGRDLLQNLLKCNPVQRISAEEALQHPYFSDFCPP
- Sequence (Q15078 99-307 partner limits assumed): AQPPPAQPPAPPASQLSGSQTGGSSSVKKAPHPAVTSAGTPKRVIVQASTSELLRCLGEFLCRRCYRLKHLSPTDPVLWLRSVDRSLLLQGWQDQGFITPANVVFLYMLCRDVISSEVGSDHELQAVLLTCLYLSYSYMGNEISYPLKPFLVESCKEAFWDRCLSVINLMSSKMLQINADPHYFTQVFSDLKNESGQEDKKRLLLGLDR
- assay details: Protein kinase assay
- Assay type: biochemical
quantity kind: IC50 (nM)

compound="NC1=NC(=O)/C(=C2\\CCNC(=O)c3[nH]c(Br)cc32)N1 [Hymenialdisine, reference compound]" quantity_kind=IC50 observed_value=6.1

====

- system under test: DYRK1B (Homo sapiens, UniProt Q9Y463)
- Sequence (Q9Y463 whole entry): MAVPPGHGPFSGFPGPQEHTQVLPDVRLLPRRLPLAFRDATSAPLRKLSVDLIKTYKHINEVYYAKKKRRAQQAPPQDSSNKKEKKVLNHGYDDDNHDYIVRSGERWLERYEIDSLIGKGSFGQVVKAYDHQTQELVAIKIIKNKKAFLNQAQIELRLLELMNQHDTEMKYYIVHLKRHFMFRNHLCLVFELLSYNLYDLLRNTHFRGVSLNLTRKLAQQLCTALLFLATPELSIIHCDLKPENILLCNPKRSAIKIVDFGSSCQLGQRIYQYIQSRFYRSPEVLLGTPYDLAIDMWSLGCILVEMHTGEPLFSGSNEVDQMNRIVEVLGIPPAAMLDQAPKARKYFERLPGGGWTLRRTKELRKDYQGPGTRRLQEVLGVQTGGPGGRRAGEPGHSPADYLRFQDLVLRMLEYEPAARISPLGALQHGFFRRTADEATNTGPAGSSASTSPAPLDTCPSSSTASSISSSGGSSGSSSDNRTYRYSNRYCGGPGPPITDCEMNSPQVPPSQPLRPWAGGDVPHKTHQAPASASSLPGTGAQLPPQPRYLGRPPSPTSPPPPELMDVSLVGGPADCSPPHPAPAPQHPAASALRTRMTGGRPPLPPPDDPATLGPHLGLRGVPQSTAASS
// reported log10 IC50 for each item listed
quantity kind: log10 IC50 (log10 of the value in nM)

molecule=CN1C(=N)N=C(Nc2nc(Cc3ccc4c(c3)OCO4)cn2C)C1=O observed_value=3.75
molecule="NC1=NC(=O)/C(=C2\\CCNC(=O)c3[nH]c(Br)cc32)N1 [Hymenialdisine, reference compound]" observed_value=0.51
molecule=NC1=N/C(=C\c2ccc(O)c(O)c2)C(=O)N1 observed_value=2.98
molecule="COc1cc(/C=C2\\N=C(N)NC2=O)ccc1O [Polyandrocarpamine A]" observed_value=2.63
molecule=NC1=NC(=Cc2cccc(Br)c2)C(=O)N1 observed_value=3.91
molecule=NC1=NC(=O)/C(=C2\CCNC(=O)c3[nH]cc(Br)c32)N1 observed_value=0.76
molecule="COc1cc(/C=C2\\N=C(N)NC2=O)ccc1O [PAC1, polyandrocarpamine A]" observed_value=2.60
molecule=NC1=NC(=Cc2cc(Br)cs2)C(=O)N1 observed_value=3.79
molecule="COc1cc(/C=C2\\N=C(N)NC2=O)ccc1O [PAC12, polyandrocarpamine A]" observed_value=2.67

====

- system under test: LmCLK (Leishmania major)
- Sequence (Q4QHY4 entry or part of it): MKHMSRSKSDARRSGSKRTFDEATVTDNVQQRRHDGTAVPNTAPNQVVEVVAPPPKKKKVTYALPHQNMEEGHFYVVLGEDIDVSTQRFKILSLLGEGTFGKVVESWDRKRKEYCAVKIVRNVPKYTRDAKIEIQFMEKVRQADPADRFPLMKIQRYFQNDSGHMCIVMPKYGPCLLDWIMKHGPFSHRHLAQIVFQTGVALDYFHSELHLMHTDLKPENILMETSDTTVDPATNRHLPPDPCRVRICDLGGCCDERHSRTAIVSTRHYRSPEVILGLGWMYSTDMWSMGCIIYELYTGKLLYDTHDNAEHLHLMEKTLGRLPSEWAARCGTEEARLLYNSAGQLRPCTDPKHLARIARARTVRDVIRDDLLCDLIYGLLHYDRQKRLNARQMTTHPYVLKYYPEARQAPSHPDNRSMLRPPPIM
- assay details: Protein kinase assay
- Format: biochemical
- study conditions: 15 μmol/L ATP; read-out: IC50 LmCLK
pIC50: −log10 of the molar value.
quantity kind: pIC50

compound="NC1=N/C(=C\\CCNC(=O)c2cc(Br)c(Br)[nH]2)C(=O)N1 [Dispacamide]" observed_value="< 5.00"
compound="CN1C(=O)N=C(Nc2nc(Cc3ccc4c(c3)OCO4)cn2C)C1=O [Clathridine]" observed_value="< 5.00"
compound="COc1cc(/C=C2\\N=C(N)NC2=O)ccc1O [Polyandrocarpamine A]" observed_value="< 5.00"
compound="CN1C(=N)N=C(Nc2nc(Cc3ccc4c(c3)OCO4)cn2C)C1=O [Clathridimine]" observed_value="< 5.00"
compound="NC1=NC(=O)/C(=C2\\CCNC(=O)c3[nH]cc(Br)c32)N1 [Spongiacidin B]" observed_value=5.28
compound="NC1=N/C(=C\\c2ccc(O)c(O)c2)C(=O)N1 [Polyandrocarpamine B]" observed_value="< 5.00"
compound="NC1=NC(=O)/C(=C2\\CCNC(=O)c3[nH]c(Br)cc32)N1 [Hymenialdisine, reference compound]" observed_value=6.40
compound="CN1C(=N)N(C)/C(=C\\c2c[nH]c3ccccc23)C1=O [Aplysinopsine]" observed_value="< 5.00"
compound="O=C1NC(Nc2ccccc2)=N/C1=C\\c1ccc2c(c1)OCO2 [Leucettine L41, reference compound]" observed_value="< 5.00"

====

- system under test: LdDYRK4 (Leishmania donovani)
- Sequence (A0A3Q8IC55 entry or part of it): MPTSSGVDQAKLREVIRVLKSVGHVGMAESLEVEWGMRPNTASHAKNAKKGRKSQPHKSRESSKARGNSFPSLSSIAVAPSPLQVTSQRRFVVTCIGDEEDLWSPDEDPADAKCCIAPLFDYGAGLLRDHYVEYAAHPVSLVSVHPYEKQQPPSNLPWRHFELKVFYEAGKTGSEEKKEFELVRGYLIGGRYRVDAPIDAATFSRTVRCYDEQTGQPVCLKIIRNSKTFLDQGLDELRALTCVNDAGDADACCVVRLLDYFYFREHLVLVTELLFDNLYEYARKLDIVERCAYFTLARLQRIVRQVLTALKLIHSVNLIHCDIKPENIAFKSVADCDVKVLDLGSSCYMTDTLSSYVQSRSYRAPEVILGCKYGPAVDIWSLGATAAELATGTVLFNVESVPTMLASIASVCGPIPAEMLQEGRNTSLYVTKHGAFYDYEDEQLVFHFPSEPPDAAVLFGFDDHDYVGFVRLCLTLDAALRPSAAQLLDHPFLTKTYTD
- assay details: Protein kinase assay
- Format: biochemical
quantity kind: IC50

compound="CN1C(=O)/C(=C/c2ccc3c(c2)OCO3)N=C1N [Leucettamine B]" observed_value="> 10 µM"

====

// reported IC50 for each item listed
- system under test: LmDYRK2 (Leishmania major, UniProt Q4Q405)
- Sequence (Q4Q405 entry or part of it): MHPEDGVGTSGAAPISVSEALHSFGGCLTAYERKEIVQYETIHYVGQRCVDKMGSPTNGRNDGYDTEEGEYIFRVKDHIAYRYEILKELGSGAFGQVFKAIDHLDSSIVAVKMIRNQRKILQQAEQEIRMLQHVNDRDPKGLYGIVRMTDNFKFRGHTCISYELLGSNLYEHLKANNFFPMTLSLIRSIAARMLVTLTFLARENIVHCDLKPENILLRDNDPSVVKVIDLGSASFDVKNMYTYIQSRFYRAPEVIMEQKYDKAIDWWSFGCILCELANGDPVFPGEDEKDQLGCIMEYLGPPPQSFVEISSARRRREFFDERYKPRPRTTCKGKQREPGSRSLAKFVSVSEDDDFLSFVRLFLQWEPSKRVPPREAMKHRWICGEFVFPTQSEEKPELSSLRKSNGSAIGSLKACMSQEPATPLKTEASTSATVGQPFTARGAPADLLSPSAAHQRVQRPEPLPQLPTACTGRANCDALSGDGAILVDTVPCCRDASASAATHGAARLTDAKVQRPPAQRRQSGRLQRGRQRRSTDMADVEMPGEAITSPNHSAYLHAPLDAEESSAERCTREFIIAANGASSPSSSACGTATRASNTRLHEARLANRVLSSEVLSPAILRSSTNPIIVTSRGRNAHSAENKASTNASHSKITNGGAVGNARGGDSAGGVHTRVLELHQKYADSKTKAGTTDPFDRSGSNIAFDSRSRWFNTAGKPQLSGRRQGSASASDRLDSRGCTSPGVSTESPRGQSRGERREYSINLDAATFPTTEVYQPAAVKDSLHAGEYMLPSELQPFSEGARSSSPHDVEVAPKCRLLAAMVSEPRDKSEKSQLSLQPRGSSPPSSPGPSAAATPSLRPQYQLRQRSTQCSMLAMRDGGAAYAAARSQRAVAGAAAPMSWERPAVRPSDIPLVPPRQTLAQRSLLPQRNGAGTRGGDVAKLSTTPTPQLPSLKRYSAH
- assay details: Protein kinase assay
- Type: biochemical
- study conditions: 15 μmol/L ATP; read-out: IC50 LmDYRK2
quantity kind: IC50 (µM)

compound=CN1C(=N)N(C)/C(=C\c2c[nH]c3ccccc23)C1=O unit_text=µM limit_sign=> observed_value=10
compound="NC1=N/C(=C\\CCNC(=O)c2cc(Br)c(Br)[nH]2)C(=O)N1 [Dispacamide]" unit_text=µM limit_sign=> observed_value=10
compound=NC1=N/C(=C\c2ccc(O)c(O)c2)C(=O)N1 unit_text=µM limit_sign=> observed_value=10
compound="NC1=NC(=O)/C(=C2\\CCNC(=O)c3[nH]c(Br)cc32)N1 [Hymenialdisine, reference compound]" unit_text=µM limit_sign== observed_value=0.38
compound=COc1cc(/C=C2\N=C(N)NC2=O)ccc1O unit_text=µM limit_sign== observed_value=5.9
